- System: CAKI-1 renal
- Test: NCI tumour cell line growth inhibition, 48 h
Give measured GI50 for each item. Keep answers brief.

{"columns": ["Compound", "GI50"],
 "data": [
  ["COc1ccc(-c2nc3ccccn3c2/C=C/C(=O)c2cc(OC)c(OC)c(OC)c2)cc1", "8.33 µM"],
  ["COc1cc(Nc2ccnc(NCCCNc3ccnc4cc(Cl)ccc34)n2)cc(OC)c1", "1.62 µM"],
  ["CC(=Nc1ccccc1)C1=C(O)C(Cc2ccccc2)NC1=O (configuration not stated)", "0.0299 µM"]
]}

For each of the items listed, what is its GI50?
1. NC(=O)c1cc(-c2ccc(F)cc2)cc(-c2ccncc2)c1N
2. Cc1cc(Cl)ccc1NC(=O)c1cc2ccccc2cc1O
3. COc1cc2c3c(n(CCCI)c(=O)c2cc1OC)-c1cc2c(cc1C3=O)OCO2
4. O=C(NCc1ccc(Cn2c(=O)sn(-c3ccccc3)c2=O)cc1)OCc1ccc2c(Br)cc(Br)c(O)c2n1
5. C=C1CCC2C(C)(C)CCC[C@]2(C)[C@H]1CO (some centres not stated)

a:
13.7 µM
0.381 µM
0.454 µM
0.404 µM
> 100 µM

Field: GI50. Fill in for each record below.
1. CN1c2ccccc2C(C)(C)C12C=Cc1cc(O)ccc1O2 (configuration not stated)
2. CCC1CCc2nc3sc(C(=O)Nc4cccc(F)c4)c(N)c3cc2C1 (configuration not stated)

a:
1: 3.37 µM; 2: 0.867 µM

I need GI50 for every entry listed below, if you could help.
1. CCN(C(=O)c1cc(F)ccc1Oc1cncnc1N1CC2(CCN(CC3CCC(NS(=O)(=O)CC)CC3)CC2)C1)C(C)C (configuration not stated)
2. COc1cc2c(cc1C)NC(=O)/C2=C\c1cccc(Oc2ccccc2)c1

a:
1. > 100 µM
2. 19.4 µM

----------
- Tested on: HT29 colon
- Test: NCI tumour cell line growth inhibition, 48 h
Parameter Measured: TGI

Answered examples (8):
{"columns": ["Compound", "TGI"],
 "data": [
  ["COc1cc2c3c(c1OC)-c1c(ccc4c1OCO4)CC3(C#N)N(C(=O)c1ccccc1)CC2 (centres undefined)", "> 100 µM"],
  ["C1CCN(c2nc(=[N+]3CCCCC3)ss2)CC1", "> 100 µM"],
  ["C=C(Br)N(CC)CC", "> 100 µM"],
  ["O=C(/C=C/c1cc(O)c(O)cc1O)OCCc1ccccc1", "41.6 µM"],
  ["COc1ccc(OC)c(CC2CCc3nc(N)nc(N)c3C2)c1 (centres undefined)", "> 100 µM"],
  ["CCOC(=O)C(Cl)(NC(=O)c1c(F)c(F)c(F)c(F)c1F)C(F)(F)F (centres undefined)", "> 100 µM"],
  ["CC[C@@H](C(=O)[C@@H](C)[C@@H](O)[C@H](C)[C@@H]1O[C@@H]([C@@H](CC)C(=O)N(CC)CC)CC[C@@H]1C)C1O[C@]2(C=CC(=O)[C@]3(CC[C@@](C)([C@H]4CC[C@](O)(CC)[C@H](C)O4)O3)O2)[C@H](C)C[C@@H]1C (some centres undefined)", "15.6 µM"],
  ["COc1cc(OC)c(C2CC=Cc3c(OC)cc(OC)c(OC)c32)cc1OC (centres undefined)", "> 100 µM"]
]}

Would you kindly look at the next entry?
q: So what does the record say about TGI for NCCCNC1(c2cc3ccccc3s2)CCCCC1 ?
a: 10.9 µM

----------
Assign GI50 to each entry below.
- Tested on: MOLT-4 leukemia
- Test: NCI tumour cell line growth inhibition, 48 h

I'm hoping you can list GI50 for every molecule here, please.
1. N#Cc1c(N)nc(N2CCOCC2)c(C#N)c1-c1cccnc1
2. COc1cc2c(cc1Nc1nc(Nc3ccsc3C(N)=O)c3cc[nH]c3n1)N(C(=O)CN(C)C)CCC2(C)C
3. CO/N=C(\C)COc1ccc2c(=O)c(-c3ccccc3)coc2c1
4. CCNC(=O)c1cc2c(-c3cc(C(C)(C)O)ccc3Oc3c(C)cc(F)cc3C)cn(C)c(=O)c2[nH]1

a:
1: > 100000 nM; 2: 1900 nM; 3: > 100000 nM; 4: 2360 nM

----------
- Test system: HT29 colon
- Test: NCI tumour cell line growth inhibition, 48 h
Parameter Measured: TGI (µM)
Numbers only, in µM.

Each compound below has a reported value. Please supply its TGI.
1. COC(=O)C1=C(C)NC(C)=C(C(=O)OC)C1/C=C(Cl)/C=C/c1ccccc1
2. CCCCCCCCCCCCCC[S+](C)C
3. Brc1ccc2c([C@H]3CN[C@@H](c4c[nH]c5cc(Br)ccc45)CN3)c[nH]c2c1

a:
[44.9, 4.93, 4.01]

----------
- Test system: NCI-H23 lung
- Test: NCI tumour cell line growth inhibition, 48 h
Field: TGI. Provide a value for each of the molecules that follow.

Examples with their reported TGI follow.
{"columns": ["Molecule", "System Under Test", "TGI"],
 "data": [
  ["c1cc(CNCCN2CCNCC2)ccn1", "NCI-H23 lung", "> 100 µM"],
  ["Cc1cc(C)nc(SC(C)C(=O)N/N=C/c2ccc(OCc3ccccc3)cc2)n1 (stereo not drawn)", "NCI-H23 lung", "> 100 µM"],
  ["COc1ccc(/C(C#N)=C/c2ccc(OC)c(OC)c2)cc1", "NCI-H23 lung", "> 100 µM"],
  ["CN(C)c1ccccc1CN1CCCN(Cc2ccccc2N(C)C)C1c1ccncc1", "NCI-H23 lung", "43 µM"],
  ["CN(C)c1nncc2[nH]cnc12", "NCI-H23 lung", "> 100 µM"]
]}

Provide reported TGI for each item, in the same order as listed.
1. NC1CC2NC3CCCCC3NC2CC1N (stereo not drawn)
2. c1ccc2c(c1)ncn2C1CCCCO1 (stereo not drawn)
3. Nc1nc(Cl)cc(NCCC2(CO)CCC2)n1
4. N#Cc1c(N)sc2c1-c1ccccc1OC2
5. CCOC(=O)NC(NC1=NCCS1)(C(=O)OCC)C(F)(F)F (stereo not drawn)

a:
1. > 100 µM
2. > 100 µM
3. > 100 µM
4. > 100 µM
5. > 100 µM

Dear reader, for each entry below, please note its TGI.
1. O=C(/C=C/c1cc([N+](=O)[O-])ccc1Cl)c1ccccc1
2. CC1OC2(CC(OCc3ccccc3)C1OCc1ccccc1)OCCO2 (stereo not drawn)
3. COC(=O)CCCC(=O)O
4. COC(=O)C1=C(C)NC(C)=C(C(=O)OC)C1/C=C(Cl)/C=C/c1ccccc1

a:
1: 36.2 µM; 2: > 100 µM; 3: > 100 µM; 4: 41.6 µM

Parameter requested: TGI. Apply to each item below.
1. C[C@@H](CO)[C@@H]1CCC=C2CC[C@]3(C)[C@H](CC[C@@H]4[C@@]5(C)CCCNC(C)(C)[C@@H]5CC[C@]43C)[C@H]21
2. N#CSCC1CC(O)(c2ccccc2)CC(c2ccc(F)cc2)O1 (stereo not drawn)
3. O=C(CC1(O)C(=O)Nc2c(Cl)cc(Cl)cc21)c1cccc2ccccc12 (stereo not drawn)
4. C1CCN(c2nc(=[N+]3CCCCC3)ss2)CC1
5. O=C(CCC(=O)C(C(=O)c1ccccc1)c1ccccc1)Nc1cccc(C(F)(F)F)c1 (stereo not drawn)
6. COC(=O)c1c(N)n[nH]c1N
7. Cc1c(COc2cc(OCc3cccc(C#N)c3)c(CN3C[C@H](O)C[C@@H]3C(=O)O)cc2Cl)cccc1-c1ccc2c(c1)OCCO2

a:
1. 14.3 µM
2. 5.32 µM
3. 32.8 µM
4. > 100 µM
5. > 100 µM
6. > 100 µM
7. 31 µM

State recorded TGI for all listed molecules.
1. Cc1cc(N(CCNc2ccnc3cc(Cl)ccc23)Cc2ccco2)nc(Cl)n1
2. COc1ccc(-c2nc3ccccn3c2/C=C/C(=O)c2cc(OC)c(OC)c(OC)c2)cc1

a:
1. 3.93 µM
2. 94.1 µM

----------
- Test system: DU-145 prostate
- Test: NCI tumour cell line growth inhibition, 48 h
Provide the recorded TGI for the entries that follow.
Give bare numbers, in µM.

Examples with their reported TGI follow.
{"columns": ["Smiles Representation", "System Under Test", "Parameter Measured", "Unit Name", "Test Result"],
 "data": [
  ["NCCCNC1(c2cc3ccccc3s2)CCCCC1", "DU-145 prostate", "TGI", "µM", 24.8],
  ["COc1cc(C2=C(C#Cc3ccccc3)COC2=O)cc(OC)c1OC", "DU-145 prostate", "TGI", "µM", 18],
  ["O=C(Nc1ccccc1)NS(=O)(=O)c1ccc(-n2nc3c(c2-c2ccc(Cl)cc2)Cc2ccccc2-3)cc1", "DU-145 prostate", "TGI", "µM", 47],
  ["CN1CCN(c2ccc3nc(-c4ccc5nc(-c6ccc(OCCC(C)(C)C)cc6)[nH]c5c4)[nH]c3c2)CC1", "DU-145 prostate", "TGI", "µM", 3.4]
]}

q: Data request, read-out TGI, for O=C(/C=C/c1cc([N+](=O)[O-])ccc1Cl)c1ccccc1
a: 31.2
